Values from PubChem BioAssay (EPA / NIEHS)

experiment: ATG_TGFb_CIS: Attagene CIS-FACTORIAL HepG2 Assay for human Transforming Growth Factor (TGF) (AID 2282967); conditions: HepG2 Attagene CIS TGFb reporter, mRNA transcription; actives raise or lower the signal
Calls of active or inactive are those of the source. How the source made its calls: active means hit-call score of the fitted dose curve at least 0.9, where 1 is the maximum; inactive means score below 0.9.
Write down the outcome that applies. Available outcomes: active, inactive

Answer briefly: the call reported for O=[N+]([O-])c1ccccc1 in this assay.
inactive

Answer briefly: the call reported for CCN(CC)c1ccccc1 in this assay.
inactive

Answer briefly: the call reported for CCCCOCC1CO1 (configuration not stated) in this assay.
inactive

Answer briefly: the call reported for CCOP(=S)(OCC)SCSc1ccc(Cl)cc1 in this assay.
inactive

Answer briefly: the call reported for Cc1ccc(C(=O)Cl)cc1 in this assay.
inactive

Answer briefly: the call reported for CCOS(=O)(=O)OCC in this assay.
inactive

Answer briefly: the call reported for CCOP(=S)(OCC)SCSCC in this assay.
inactive

Answer briefly: the call reported for CC(=O)CCc1ccc2c(c1)OCO2 in this assay.
inactive

Answer briefly: the call reported for O=c1ssc(Cl)c1Cl in this assay.
inactive

Answer briefly: the call reported for CCOP(=O)(O)C(N)=O in this assay.
inactive

Answer briefly: the call reported for OCC(F)(F)OC(F)(F)C(F)(F)OC(F)(F)C(F)(F)OC(F)(F)CO in this assay.
inactive

Answer briefly: the call reported for CCC(C)(C)c1ccc(O)cc1 in this assay.
inactive

Answer briefly: the call reported for O=S(=O)(F)C(F)(F)C(F)(F)C(F)(F)C(F)(F)C(F)(F)C(F)(F)C(F)(F)C(F)(F)F in this assay.
inactive

Answer briefly: the call reported for CC(Cl)(Cl)C(=O)O in this assay.
inactive

Answer briefly: the call reported for CCOC(=O)c1ccccc1C(=O)OCC in this assay.
inactive

Answer briefly: the call reported for O=C(CBr)OCc1ccccc1 in this assay.
inactive

Answer briefly: the call reported for CC1(C)CN=C(NN=C(/C=C/c2ccc(C(F)(F)F)cc2)/C=C/c2ccc(C(F)(F)F)cc2)NC1 in this assay.
active

Answer briefly: the call reported for O=C(O)C1C(C(=O)O)C2(Cl)C(Cl)=C(Cl)C1(Cl)C2(Cl)Cl (configuration not stated) in this assay.
inactive

Answer briefly: the call reported for CCCCc1ccc(O)cc1 in this assay.
inactive

Answer briefly: the call reported for O=NN1CCCC1 in this assay.
inactive

Answer briefly: the call reported for Nc1ccc2ccccc2c1 in this assay.
inactive

Answer briefly: the call reported for CCCCN(CC)C(=O)SCCC in this assay.
inactive

Answer briefly: the call reported for CCOP(=S)(Oc1ccc([N+](=O)[O-])cc1)c1ccccc1 (configuration not stated) in this assay.
inactive

Answer briefly: the call reported for Oc1ccccc1Br in this assay.
inactive

Answer briefly: the call reported for c1nc[nH]n1 in this assay.
inactive

Answer briefly: the call reported for C=CC(=O)OCC(CC)(COC(=O)C=C)COC(=O)C=C in this assay.
active

Answer briefly: the call reported for CC(O)C#N (configuration not stated) in this assay.
inactive

Answer briefly: the call reported for CCCCN(CCCC)N=O in this assay.
inactive

Answer briefly: the call reported for [N-]=[N+]=[N-] in this assay.
inactive

Answer briefly: the call reported for Cc1c([N+](=O)[O-])cc2c(c1[N+](=O)[O-])C(C)(C)CC2(C)C in this assay.
inactive

Answer briefly: the call reported for c1ccc2c(c1)sc1ccccc12 in this assay.
inactive

Answer briefly: the call reported for CSC(C)(C)C=NO in this assay.
inactive
